experiment: yeast display, Sf9 membrane polyspecificity reagent, FACS + sequencing; frameworks hold sequencing errors
quantity.measured: polyreactivity (PSR sort gate)

QVQLVESGGGLVQAGRSLRISRAASGSIFYKNVMGWYRQAPGKERELVAAITSGGSTYYADSVKGRFTISRDNAKNTVYFQMNSVYPEYSAVYYWAAGFGRNPVSRYYWGQGTQVTVSS    high polyreactivity
QLQLVESGGGLVQAGGSLRLSCAPSGRTFVGNAMGWYRQAPGKERELVAAITLSDGSTYYADSVKGRFTISRDNAKNTVYLQMNSLKPEDTAVYYCATQPLYWYDVVVNIRGPSGYWGQGTQVTVSS    low polyreactivity
QVQLVESGGGLVQAGGSLRLSCAASGRTSGNYAMGWYRQAPGKERELVAAIRYSGSSTFYADSVKGRFTISRDNAKNTVYLQMNSLKPEDTAVYYCARDIRRKGFRYDYWGQGTQVTVSS    high polyreactivity
QVQLVESGGGLVQAGGSLRLSCAASGSTFDKYSMGWYRQAPGKERELVAAITWGGGSTYYADSVKGRFTISRDNAKNTVYLQMNSLKPEDTAVYYCAAEQGSSVLYDSWGQGTQVTVSS    low polyreactivity
QVQLVESGGGLVQAGGSLRLSCAASGRIFPWYAMGWYRQAPGKERELVAAISWSGGRTYYADSVKGRFTISRDNAKITVYLQMNSLKPEDTAVYYCNTGTSGRFLSFGNFDYWGQGTQVTVSS    high polyreactivity
QVQLVESGGGLVQAGGSLRLSCAASGFTFSDNAMGWYRQAPGKERELVAAISRSGGNTHYADSVKGRFTISRDNAKNTVFLQMNSLKPEDTAVYYCAARPPGGYLYDYWGQGTQVTVSS    high polyreactivity

# polyreactivity (PSR sort gate) lookup, item QVQHVESGGGLVQAGGSLRLSCAASGYTFPLYAMGWYRQAPGKEREFVAAISKRSGTTYYADSVKGRFTISRDNAKNTVYLQMNSLKPEDTAVYYCNAGYSVYNQRFGYWGQGTQVTVSS
high polyreactivity

# polyreactivity (PSR sort gate) lookup, item QVQLVESGGGLVQAGGSLRLSCAASGFSFIDNALGWYPQAPGKERELVAAITWSGGSTYYADSVKGRFTISRDNAKNTVYLQMNSLKPEDTAVYYCAATLWFGVAGDSRYDPPEYDYWGQGTQVTVSS
low polyreactivity

# polyreactivity (PSR sort gate) lookup, item QVQLVESGGGLVQAGGSLRLSCAASGSIFSGYTMGWYRQAPGKERELVAGISYRGGSTYYADSVKGRFTNSRDNAKNTVYLQMNSLKPEDTAVYYCAALYYRRGSLNYEYWGQGTQVTVSS
high polyreactivity

# polyreactivity (PSR sort gate) lookup, item QVQLVESGGGLVQAGGSLRLSCAASGFIFTHYAMGWYRQAPGKERELVAAISRRGGSTYYADSVKGRFTISRDNAKNTVYLQMNSLKPEDTAVYYCAADNYDAWYWDYYWGQGTQVTVSS
high polyreactivity

# polyreactivity (PSR sort gate) lookup, item QVQLVESGGGLVQAGGSLRLSCAASGRTFPGNDMGWYRQAPGKERELVAAISGNGGNTNYADSVKGRFTISRDNAKNTVYLQMNSLKPEDTAVYYCKADVPSDGYPGYPGGFESWGQGTQVTVSS
low polyreactivity
